B1: FUT8 (parent)
chain: NWRYATGGWETVFRPVSETCTDRS

# Variants of: B1
# method: protein stability index of a GFP-peptide fusion (GPS, HEK-293T) (PSI 1-6); higher = more stable;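 also: lentivirally expressed fusions sorted by FACS into six bins by GFP to DsRed ratio, PSI derived from sequencing read proportions per bin multiplied by bin number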
# conditionSummary: c terminus: a fixed tail appended
assayMetric: protein stability index

[
  {
    "mutant": "V16A",
    "protein stability index": 1.66
  },
  {
    "mutant": "N1M",
    "protein stability index": 1.12
  },
  {
    "mutant": "W9N",
    "protein stability index": 2.27
  },
  {
    "mutant": "V16W",
    "protein stability index": 2.01
  },
  {
    "mutant": "G8I",
    "protein stability index": 1.48
  }
]

-- ask Field request: protein stability index | item: F13Y
-- reply 1.55

-- ask Entry G8M has what protein stability index?
-- reply 2.01

-- ask Reported protein stability index, variant R14D : ____
-- reply 2.4

-- ask Looking for the measured protein stability index of G8Q , can you help?
-- reply 1.98
